Literature-derived pIC50 for BTK (Homo sapiens) follows.
pIC50: −log10 of the molar value.

The cases that follow already have their pIC50 on record.
C=CC(=O)N1CC(F)(F)C[C@H]1Cn1nc(-c2ccc(Oc3ccccc3)cc2)c2cncnc21: > 7.00
C=CC(=O)N1CC2CC1C(n1nc(-c3cccc(C(=O)Nc4ccc(C(C)C)cc4)c3)c3c(N)ncnc31)C2 (stereo not drawn): 6.86
CC#CC(=O)N[C@@H]1CC[C@H](c2c(F)cc(C(N)=O)c3[nH]c(C)c(C)c23)C1: < 8.00
C=CC(=O)N1CCC2CC21c1nc(-c2ccc(C(=O)Nc3cc(C(F)(F)F)ccn3)cc2)c2c(N)nccn12 (stereo not drawn): 7.11
Cc1cc(-c2ncnc3[nH]c(-c4cnn(C)c4)cc23)ccc1C(CO)NC(=O)c1cnc(C(C)(C)C)s1 (stereo not drawn): > 8.00

Now for the compound whose pIC50 we want.
In: Return reported pIC50; argument: C=CC(=O)N1CC[C@H](n2cc(C(N)=O)c(-c3ccc(Oc4ccccc4)cc3)n2)C1
Out: > 6.30
